System: MDA-MB-436
Assay: normalised response (% of control), CellTox Green; higher = less cell death (100 = DMSO, 0 = benzethonium chloride kill control)
Conditions: incubation time: 72 h
normalised response by entry:
Kindly answer with a numeric value in %, unit omitted.

C=CCN(/C=C1/C(=O)O[C@H](COC)[C@@]2(C)C1=C(O)C(=O)C1=C2[C@H](OC(C)=O)C[C@]2(C)C(=O)CC[C@@H]12)CC=C [Sonolisib] (1000 nM); 103

Using the record for Cc1cc(Nc2nc(N[C@@H](C)c3ncc(F)cn3)ncc2Cl)[nH]n1 [AZD1480] (1000 nM) , state its measured normalised response.
105

Note normalised response for the molecule shown: C=CCN(/C=C1/C(=O)O[C@H](COC)[C@@]2(C)C1=C(O)C(=O)C1=C2[C@H](OC(C)=O)C[C@]2(C)C(=O)CC[C@@H]12)CC=C [Sonolisib] (100 nM)
107

The measurements presented in this section are drawn from the supplement of paper PMC4862054.
